// data source = patent US20170275270A1

Reported pIC50 values are given for each entry in this list.
molecular target: catalytic domain of human Bub1 (amino acids 704-1085) (Homo sapiens); construct: catalytic domain of human Bub1 (amino acids 704-1085); His6 (N); made in house; host or cells: Hi5 insect cells; test: Bub1 kinase assay (TR-FRET); type: biochemical; conditions: 10 μM ATP, read-out: Biological Assay 1: Bub1 kinase assay median IC50
Sequence (O43683 704-1085): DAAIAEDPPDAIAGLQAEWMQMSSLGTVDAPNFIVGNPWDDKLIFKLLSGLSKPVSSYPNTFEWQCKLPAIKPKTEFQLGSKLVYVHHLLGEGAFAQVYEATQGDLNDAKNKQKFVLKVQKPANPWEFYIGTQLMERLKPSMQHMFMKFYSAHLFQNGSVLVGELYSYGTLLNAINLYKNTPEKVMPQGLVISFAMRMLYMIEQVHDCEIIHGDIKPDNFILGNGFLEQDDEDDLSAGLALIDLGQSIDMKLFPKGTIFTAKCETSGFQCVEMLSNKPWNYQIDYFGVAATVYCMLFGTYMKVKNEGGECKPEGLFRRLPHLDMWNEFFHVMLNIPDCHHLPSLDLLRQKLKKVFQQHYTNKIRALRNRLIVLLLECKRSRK
pIC50: −log10 of the molar value.
Metric: pIC50

> print(dat)
                    structure.smiles.string                           target.of.assay  measurement
1  CCOc1cc(F)c(Cn2nc(-c3nc4c(c(Nc5ccnc(NC(C)=O)c5)n3)CCC4)c3ccccc32)c(F)c1  catalytic domain of human Bub1 (amino acids 704-1085) (Homo sapiens)         8.08
2  COc1cnccc1Nc1nc(-c2nn(Cc3c(F)cc(OCCO)cc3F)c3ccccc23)nc(C)c1C  catalytic domain of human Bub1 (amino acids 704-1085) (Homo sapiens)         8.17
3  CCOc1cc(F)c(Cn2nc(-c3nc4c(c(Nc5ccnnc5)n3)CCC4)c3ccccc32)c(F)c1  catalytic domain of human Bub1 (amino acids 704-1085) (Homo sapiens)         7.80
4  CCOc1cc(F)c(Cn2nc(-c3nc(CN4CCOCC4)cc(Nc4ccncc4OC)n3)c3ccccc32)c(F)c1  catalytic domain of human Bub1 (amino acids 704-1085) (Homo sapiens)         8.11
5  COCCOc1cc(F)c(Cn2nc(-c3nc(C)c(C)c(Nc4ccncc4OC)n3)c3ccccc32)c(F)c1  catalytic domain of human Bub1 (amino acids 704-1085) (Homo sapiens)         8.21
6  CCOc1cc(F)c(Cn2nc(-c3nc(CN4CCOCC4)cc(Nc4ccncc4)n3)c3ccccc32)c(F)c1  catalytic domain of human Bub1 (amino acids 704-1085) (Homo sapiens)         8.17
7  CCOc1cc(F)c(Cn2nc(-c3ncc(CCN)c(Nc4ccnc(C(F)F)c4)n3)c3ccccc32)c(F)c1  catalytic domain of human Bub1 (amino acids 704-1085) (Homo sapiens)         8.15
